# Test system: HBsAg
# method-summary: HBsAg assay: inhibition of HBsAg in HepG2.2.15 cells (CLIA immunoassay of supernatant)
# Type: cell-based, hepatitis B virus (HBV)
# measurement-conditions: Hepatitis B virus, HepG2.2.15, 144 h, read-out: sAg EC50, HepG2.2.15 cells; supernatant collected at day 6 after exposure; HBsAg chemiluminescence immunoassay
# Description: Inhibition of HBsAg was determined in HepG2.2.15 cells. Cells were maintained in culture medium containing 10% fetal calf serum, […], Glutamine, penicillin/streptomycin. Cells were seeded in 96-well collagen-coated plate at a density of 30,000 cells/well. Serially diluted compounds were added to cells next day at the final DMSO concentration of 0.5%. Cells were incubated with compounds for 2-3 days, after which medium was removed. […]
# pEC50 per record follows
Quick note: pEC50 means taking -log10 of the concentration in moles per liter.

Examples with answers:
COCCCOc1cc2c(cc1C1CCOCC1)-c1[nH]c(=O)c(C(=O)O)c(O)c1[C@H](C(C)C)CO2 [Example 94] | 6.14
COCCCOc1cc2c(cc1OC)-c1[nH]c(=O)c(C(=O)O)c(F)c1C(C(C)C)C2 (centres unmarked) [Example 17] | 6.19
COCCCOc1cc2c(cc1OC)-c1[nH]c(=O)c(C(=O)O)c(Cl)c1C(C(C)C)C2 (centres unmarked) [Example 20] | 5.42
COCCCOc1cc2c(cc1Cl)-c1[nH]c(=O)c(C(=O)O)c(O)c1[C@H](C(C)C)CO2 [Example 70] | 6.92
COCCCOc1cc2c(nc1Cl)-c1[nH]c(=O)c(C(=O)O)c(O)c1C(C(C)C)CO2 (centres unmarked) [Example 74] | 7.40

[Q] Need pEC50 of COCCCOc1cc2c(cc1COC)-c1[nH]c(=O)c(C(=O)O)c(O)c1[C@H](C(C)C)CO2 [Example 71] , thanks.
[A] 6.55

[Q] Sample COCCCOc1cc2c(nc1C1CC1)-c1[nH]c(=O)c(C(=O)O)c(O)c1C(C(C)C)CO2 (centres unmarked) [Example 93] — what was its pEC50?
[A] 6.92

[Q] Given the entry COCCCOc1cc2c(nc1OC)-c1[nH]c(=O)c(C(=O)NO)c(O)c1C(C(C)(C)C)C2 (centres unmarked) [Example 65] , report its measured pEC50.
[A] 8.70
